Measured values drawn from PubChem BioAssay (NCI) for this set.

Tested on: RPMI-8226 leukemia
procedure-details: NCI tumour cell line growth inhibition, 48 h; in the data active means GI50 below about 0.43 µM; inactive means the rest
Classes used: YES = active, NO = inactive

# molecule, tested-target, group
rows = [
    ("COc1ccc(C=C2C(=O)NC(=O)NC2=O)cc1OCc1ccccc1", "RPMI-8226 leukemia", "NO"),
    ("O=C(NN1C(=O)CSC12CCC(c1ccccc1)CC2)c1[nH]c2ccc(F)cc2c1-c1ccccc1 (stereo not given)", "RPMI-8226 leukemia", "NO"),
    ("O=C(Cn1c2ccccc2c2ccncc21)N/N=C\\c1ccc2ccccc2c1", "RPMI-8226 leukemia", "NO"),
    ("Cc1ccc(-c2c3c(N)c4c(nc3nc3c2c(C)nn3-c2ccccc2)CCC4)cc1", "RPMI-8226 leukemia", "NO"),
    ("COc1cc(NC(=O)c2cc(O)c(C/C=C(\\C)CCC=C(C)C)c(O)c2)cc2c1O[C@]1(C)CC[C@@H](O)C(C)(C)[C@H]1C2", "RPMI-8226 leukemia", "YES"),
    ("CNc1ncc2cc(Oc3ccc(F)cc3F)c(=O)n(C)c2n1", "RPMI-8226 leukemia", "NO"),
    ("COC(=O)Nc1nc2ccc(S(=O)(=O)c3ccc(NC(=O)Nc4cc(C(F)(F)F)ccc4F)cc3)cc2[nH]1", "RPMI-8226 leukemia", "NO"),
    ("C=C1C(=O)O[C@H]2[C@H]1CC/C(CNC(=O)/C=C/c1ccc(Cl)cc1Cl)=C\\CC[C@@]1(C)O[C@@H]21", "RPMI-8226 leukemia", "YES"),
    ("CCC(=O)c1c(C(F)(F)F)n([O-])c2ccccc2[n+]1=O", "RPMI-8226 leukemia", "NO"),
    ("Cn1ncnc1C1c2n[nH]c(=O)c3cc(F)cc(c23)NC1c1ccc(F)cc1 (stereo not given)", "RPMI-8226 leukemia", "NO"),
    ("O=c1[nH]nc(-c2ccccc2)c2c(-c3ccccc3)onc12", "RPMI-8226 leukemia", "NO"),
    ("Oc1ccc(O)c2c1C1(Cl)C(Cl)=C(Cl)C2(Cl)C1(Cl)Cl", "RPMI-8226 leukemia", "NO"),
    ("CN(CCCN(C)CCC1CCCCC1)CCC1CCCCC1", "RPMI-8226 leukemia", "NO"),
    ("COc1ccc2c(c1)C=C1CSCC3=Cc4cc(OC)ccc4OC13O2", "RPMI-8226 leukemia", "YES"),
    ("CCCC(CCC)C(=O)OCC1(CO)C/C(=C\\c2ccc(C(F)(F)F)cc2)C(=O)O1 (stereo not given)", "RPMI-8226 leukemia", "NO"),
]
